From: patent US11279733B2

- PROCEDURE TEXT: in vitro
- SETTINGS: human
Positions of bridges follow the written chain, without caps; N, C: chain ends. Non-standard residues stand in square brackets, D forms with d. Residues, ends and D or L forms follow the SMILES beside them. *: point of attachment. Decanoyl(3R-OH) = CCCCCCC[C@@H](O)CC(=O)*; Butanoyl(4-OPh) = O=C(CCCOc1ccccc1)*; dDab = NCC[C@@H](N)C(=O)O; dDap = NC[C@@H](N)C(=O)O; Dab = NCC[C@H](N)C(=O)O; Dap = NC[C@H](N)C(=O)O
TEST READOUT: CC50 at 24 h (µM)
Answers are plain numbers, in µM.

Quick one: CC50 at 24 h of CCCCCCC[C@@H](O)CC(=O)N[C@H](CCN)C(=O)N[C@H]1CCNC(=O)[C@H](Cc2ccccc2)NC(=O)[C@H](CN)NC(=O)[C@H](CCN)NC(=O)[C@H](CC(C)C)NC(=O)[C@@H](Cc2ccccc2)NC(=O)[C@H](CCN)NC1=O [compound 5385] ({Decanoyl(3R-OH)}-[dDab][Dab][Dab][dF]L[Dab][Dap]F; lactam 2-C) ?
41

Below are 2 compounds. Give each one its CC50 at 24 h.
1. CCCCCCC[C@@H](O)CC(=O)N[C@H](CN)C(=O)N[C@H]1CCNC(=O)[C@H](CC(C)C)NC(=O)[C@H](CCN)NC(=O)[C@H](CCN)NC(=O)[C@H](Cc2ccccc2)NC(=O)[C@@H](CC(C)C)NC(=O)[C@H](CCN)NC1=O [compound 6427] ({Decanoyl(3R-OH)}-[dDap][Dab][Dab][dL]F[Dab][Dab]L; lactam 2-C)
2. CC(C)C[C@@H]1NC(=O)[C@H](CCN)NC(=O)[C@H](CCN)NC(=O)[C@H](Cc2ccccc2)NC(=O)[C@@H](CC(C)C)NC(=O)[C@H](CCN)NC(=O)[C@@H](NC(=O)[C@@H](CCN)NC(=O)CCCOc2ccccc2)CCNC1=O [compound 6521] ({Butanoyl(4-OPh)}-[dDab][Dab][Dab][dL]F[Dab][Dab]L; lactam 2-C)

1: 123; 2: 290
